Data origin: patent US20250152746A1

- Test system: PCSK9 gene
- Experiment notes: PCSK9 gRNA/SpCas9 editing in primary human hepatocytes (Tables 2, 4)
- Format: cell-based
- Condition: 2500 ng/RNA/mL; SpCas9 mRNA MS002 1:1 by weight
m = 2'-O-methyl; r = 2'-OH (RNA)
Reported property: Human Primary Hepatocyte Editing % 2500 (%)
The reply should be a number in %, with the unit left off.

q: Given the entry GA172: PCSK9 gRNA; protospacer CAGTGCGCTCTGACTGCGAG (SEQ ID NO: 166) (nucleic acid, sugars from the 5' end m3 r94 m3, linkages s3 o93 s3 (s phosphorothioate, o phosphodiester), T or U not given here) guide: CAGUGCGCUCUGACUGCGAGGUUUUAGAGCUAGAAAUAGCAAGUUAAAAUAAGGCUAGUCCGUUAUCAACUUGAAAAAGUGGCACCGAGUCGGUGCUUUU , report its measured Human Primary Hepatocyte Editing % 2500.
a: 14.01
